compounds and their reported DC50
- experimental.target: SMARCA4-HiBiT HeLa cells (protein which is expressed from the SMARCA4 gene) (Homo sapiens)
- Construct: protein which is expressed from the SMARCA2 and SMARCA4 genes; host or cells: HeLa (SMARCA4-HiBiT engineered line)
- protocol.details: SMARCA4 degradation assay (HiBiT-fusion HeLa cell line, 24 h, luminescence)
- Type: cell-based
quantity.name: DC50

compound	experimental.target	assay.result
CC(C)(C)OC(=O)NCC#Cc1nccc(N2CCCN(c3cc(-c4ccccc4O)nnc3N)CC2)n1	SMARCA4-HiBiT HeLa cells (protein which is expressed from the SMARCA4 gene) (Homo sapiens)	50 to 500 nM
CC(C)(C)OC(=O)NCC#Cc1nccc(N2CCC3CCC(C2)N3c2cc(-c3ccccc3O)nnc2N)n1 (stereo not drawn)	SMARCA4-HiBiT HeLa cells (protein which is expressed from the SMARCA4 gene) (Homo sapiens)	50 to 500 nM
Cc1nc(C)n(CC#Cc2nccc(N3CCN(c4cc(-c5ccccc5O)nnc4N)CC[C@H]3C)n2)c1C	SMARCA4-HiBiT HeLa cells (protein which is expressed from the SMARCA4 gene) (Homo sapiens)	50 to 500 nM
C[C@@H]1CCN(c2cc(-c3ccccc3O)nnc2N)CCN1c1ccnc(C#CCN2CC(C#N)C2)n1	SMARCA4-HiBiT HeLa cells (protein which is expressed from the SMARCA4 gene) (Homo sapiens)	50 to 500 nM
Nc1nnc(-c2ccccc2O)cc1N1CCC2(CCN(c3ccnc(C#CCNC(=O)c4cc5ncccn5n4)n3)CC2)C1	SMARCA4-HiBiT HeLa cells (protein which is expressed from the SMARCA4 gene) (Homo sapiens)	50 to 500 nM
C[C@@H]1CCN(c2cc(-c3ccccc3O)nnc2N)CCN1c1ccnc(C#CC2CC(F)(F)C2)n1	SMARCA4-HiBiT HeLa cells (protein which is expressed from the SMARCA4 gene) (Homo sapiens)	50 to 500 nM
Nc1nnc(-c2ccccc2O)cc1N1CCCN(c2ccnc(C#CCN3CCCOCC3)n2)CC1	SMARCA4-HiBiT HeLa cells (protein which is expressed from the SMARCA4 gene) (Homo sapiens)	50 to 500 nM
Nc1nnc(-c2ccccc2O)cc1N1CCCN(c2ccnc(C#CC3CCOC3)n2)CC1 (stereo not drawn)	SMARCA4-HiBiT HeLa cells (protein which is expressed from the SMARCA4 gene) (Homo sapiens)	50 to 500 nM
C[C@@H]1CN(c2ccnc(C#CCNC(=O)c3cc4ncccn4n3)n2)C[C@@H](C)N1c1cc(-c2ccccc2O)nnc1N	SMARCA4-HiBiT HeLa cells (protein which is expressed from the SMARCA4 gene) (Homo sapiens)	500 to 5000 nM
C[C@@H]1CCN(c2cc(-c3ccccc3O)nnc2N)CCN1c1ccnc(C#CCNC(=O)c2cccnc2)n1	SMARCA4-HiBiT HeLa cells (protein which is expressed from the SMARCA4 gene) (Homo sapiens)	500 to 5000 nM
Nc1nnc(-c2ccccc2O)cc1N1CCCN(c2ccnc(C#CCn3ccc(-c4ccccn4)n3)n2)CC1	SMARCA4-HiBiT HeLa cells (protein which is expressed from the SMARCA4 gene) (Homo sapiens)	50 to 500 nM
Cc1cc(C(=O)NCC#Cc2nccc(N3CCN(c4cc(-c5ccccc5O)nnc4N)CC3)n2)no1	SMARCA4-HiBiT HeLa cells (protein which is expressed from the SMARCA4 gene) (Homo sapiens)	50 to 500 nM
C/C=C/c1nccc(N2CCN(c3cc(-c4ccccc4O)nnc3N)CC[C@H]2C)n1	SMARCA4-HiBiT HeLa cells (protein which is expressed from the SMARCA4 gene) (Homo sapiens)	50 to 500 nM
Nc1nnc(-c2ccccc2O)cc1OC1CC2CN(c3ccnc(C#CCN4CCOCC4)n3)CC2C1 (stereo not drawn)	SMARCA4-HiBiT HeLa cells (protein which is expressed from the SMARCA4 gene) (Homo sapiens)	50 to 500 nM
C[C@H]1CN(c2ccnc(C#CCN)n2)CCN1c1cc(-c2ccccc2O)nnc1N	SMARCA4-HiBiT HeLa cells (protein which is expressed from the SMARCA4 gene) (Homo sapiens)	> 5000 nM

====

compounds and their reported inhibition at 1 µM
- experimental.target: SMARCA4-HiBiT HeLa cells (protein which is expressed from the SMARCA4 gene) (Homo sapiens, UniProt P51532)
- Construct: protein which is expressed from the SMARCA2 and SMARCA4 genes; host or cells: HeLa (SMARCA4-HiBiT engineered line)
- Sequence (P51532 whole entry): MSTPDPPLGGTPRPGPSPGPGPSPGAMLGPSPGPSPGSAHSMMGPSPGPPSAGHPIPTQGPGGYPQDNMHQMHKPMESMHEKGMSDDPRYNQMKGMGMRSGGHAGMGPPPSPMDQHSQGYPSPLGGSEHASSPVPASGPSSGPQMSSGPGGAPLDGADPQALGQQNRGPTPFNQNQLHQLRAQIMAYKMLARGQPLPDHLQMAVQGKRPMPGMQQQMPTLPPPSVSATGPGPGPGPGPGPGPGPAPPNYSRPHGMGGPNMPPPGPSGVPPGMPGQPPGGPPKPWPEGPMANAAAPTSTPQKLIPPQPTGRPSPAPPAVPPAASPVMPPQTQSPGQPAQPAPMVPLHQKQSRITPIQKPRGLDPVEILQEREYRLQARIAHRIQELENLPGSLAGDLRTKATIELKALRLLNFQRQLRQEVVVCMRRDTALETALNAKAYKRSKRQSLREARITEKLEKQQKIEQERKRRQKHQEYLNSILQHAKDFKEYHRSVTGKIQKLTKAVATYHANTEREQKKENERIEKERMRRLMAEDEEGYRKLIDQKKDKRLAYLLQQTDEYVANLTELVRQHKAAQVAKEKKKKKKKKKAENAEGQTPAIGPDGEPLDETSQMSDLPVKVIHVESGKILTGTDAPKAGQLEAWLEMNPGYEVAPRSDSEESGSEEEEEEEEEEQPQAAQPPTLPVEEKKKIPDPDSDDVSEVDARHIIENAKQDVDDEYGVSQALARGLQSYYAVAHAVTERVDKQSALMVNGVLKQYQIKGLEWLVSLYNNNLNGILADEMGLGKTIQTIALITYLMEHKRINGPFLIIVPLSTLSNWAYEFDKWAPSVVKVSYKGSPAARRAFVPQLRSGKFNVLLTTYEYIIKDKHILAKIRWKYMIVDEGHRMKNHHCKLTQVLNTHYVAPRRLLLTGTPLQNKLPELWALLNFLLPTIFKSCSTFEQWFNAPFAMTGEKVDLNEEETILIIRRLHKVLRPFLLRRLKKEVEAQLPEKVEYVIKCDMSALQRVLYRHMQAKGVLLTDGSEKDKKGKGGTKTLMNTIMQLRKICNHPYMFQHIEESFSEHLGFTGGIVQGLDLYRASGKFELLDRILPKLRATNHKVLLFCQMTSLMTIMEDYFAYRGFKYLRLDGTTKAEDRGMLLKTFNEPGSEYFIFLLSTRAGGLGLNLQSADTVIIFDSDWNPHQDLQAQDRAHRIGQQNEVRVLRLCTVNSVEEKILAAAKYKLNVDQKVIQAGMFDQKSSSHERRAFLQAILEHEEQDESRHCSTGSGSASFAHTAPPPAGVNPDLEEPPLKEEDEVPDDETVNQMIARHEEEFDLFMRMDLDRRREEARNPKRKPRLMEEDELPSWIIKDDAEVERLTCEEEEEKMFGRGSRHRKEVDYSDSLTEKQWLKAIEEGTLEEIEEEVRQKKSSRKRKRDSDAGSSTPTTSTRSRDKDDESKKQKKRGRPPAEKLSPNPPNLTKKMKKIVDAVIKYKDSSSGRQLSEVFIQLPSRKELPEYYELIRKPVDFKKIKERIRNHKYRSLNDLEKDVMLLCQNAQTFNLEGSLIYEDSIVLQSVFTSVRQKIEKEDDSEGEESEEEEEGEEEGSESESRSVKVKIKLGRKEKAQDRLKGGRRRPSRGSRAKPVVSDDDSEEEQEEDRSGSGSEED
- protocol.details: SMARCA4 degradation assay (HiBiT-fusion HeLa cell line, 24 h, luminescence)
- Type: cell-based
- condition.context: @ 1 μM

compound	inhibition at 1 µM
Nc1nnc(-c2ccccc2O)cc1OC1CC2CN(c3ccnc(C#CCn4ccnc4)n3)CC2C1 (stereo not shown) [Compound P-219]	> 70%
C[C@@H]1CCN(c2cc(-c3ccccc3O)nnc2N)CCN1c1ccnc(C#C[C@@H](C)O)n1 [Compound P-198]	30 to 70%
Nc1nnc(-c2ccccc2O)cc1N1CCN(c2ccnc(C#CCN3CCCCC3)n2)CC1 [Compound P-280]	< 30%
CN(C)CC#Cc1nccc(N2C3CCC2CN(c2cc(-c4ccccc4O)nnc2N)CC3)n1 (stereo not shown) [Compound P-157]	30 to 70%
CC1CN(c2ccnc(C#CCNC(=O)c3cc4ncccn4n3)n2)CCCN1c1cc(-c2ccccc2O)nnc1N (stereo not shown) [Compound P-29]	> 70%
CC1(F)CCN(CC#Cc2nccc(N3C4CCC3CN(c3cc(-c5ccccc5O)nnc3N)C4)n2)C1 (stereo not shown) [Compound P-194]	30 to 70%
Nc1nnc(-c2ccccc2O)cc1N1CCCN(c2ccnc(C#CCn3ccc4ccccc43)n2)CC1 [Compound P-151]	30 to 70%

====

- experimental.target: SMARCA4-HiBiT HeLa cells (protein which is expressed from the SMARCA4 gene) (Homo sapiens, UniProt P51532)
- Construct: protein which is expressed from the SMARCA2 and SMARCA4 genes; host or cells: HeLa (SMARCA4-HiBiT engineered line)
- protocol.details: SMARCA4 degradation assay (HiBiT-fusion HeLa cell line, 24 h, luminescence)
- Assay type: cell-based
- condition.context: 1 μM
quantity.name: inhibition at 1 µM

molecule	quantity.name	assay.result
C[C@@H]1CCN(c2cc(-c3ccccc3O)nnc2N)CCN1c1ccnc(C#CC2CC(F)(F)C2)c1	inhibition at 1 µM	30 to 70%
CC1CC(C)N1CC#Cc1cc(N2CCN(c3cc(-c4ccccc4O)nnc3N)CC[C@H]2C)ccn1 (stereo partly shown)	inhibition at 1 µM	30 to 70%
C[C@@H]1CCN(c2cc(-c3ccccc3O)nnc2N)CCN1c1ccnc(C#CCN2CC3CC2C3)c1	inhibition at 1 µM	> 70%
C[C@@H]1CCN(c2cc(-c3ccccc3O)nnc2N)CCN1c1ccc(C#N)c(C#CCN2CCC(F)(F)CC2)n1	inhibition at 1 µM	> 70%

====

compounds and their reported inhibition at 1 µM
- experimental.target: SMARCA4-HiBiT HeLa cells (protein which is expressed from the SMARCA4 gene) (Homo sapiens)
- Construct: protein which is expressed from the SMARCA2 and SMARCA4 genes; host or cells: HeLa (SMARCA4-HiBiT engineered line)
- protocol.details: SMARCA4 degradation assay (HiBiT-fusion HeLa cell line, 24 h, luminescence)
- Format: cell-based
- condition.context: @ 1 μM
quantity.name: inhibition at 1 µM

compound	assay.result
Nc1nnc(-c2ccccc2O)cc1N1CCC2(CCCN(c3ccnc(C#CCNC(=O)c4cc5n(n4)CCC5)n3)C2)CC1	30 to 70%
C[C@@H]1CCN(c2cc(-c3ccccc3O)nnc2N)CCN1c1ccnc(C#CCN2[C@@H]3CC[C@H]2C[C@@H](O)C3)n1	30 to 70%
CC(C)(C)OC(=O)N1CCCC1C#Cc1nccc(N2CCCN(c3cc(-c4ccccc4O)nnc3N)CC2)n1 (stereo not shown)	> 70%
C[C@@H]1CCN1CC#Cc1nccc(N2CCCN(c3cc(-c4ccccc4O)nnc3N)CC2)n1	30 to 70%

====

- experimental.target: SMARCA2-HiBiT HeLa cells (protein which is expressed from the SMARCA2 gene) (Homo sapiens, UniProt P51531)
- Construct: protein which is expressed from the SMARCA2 and SMARCA4 genes; host or cells: HeLa (SMARCA2-HiBiT engineered line)
- Sequence (P51531 whole entry): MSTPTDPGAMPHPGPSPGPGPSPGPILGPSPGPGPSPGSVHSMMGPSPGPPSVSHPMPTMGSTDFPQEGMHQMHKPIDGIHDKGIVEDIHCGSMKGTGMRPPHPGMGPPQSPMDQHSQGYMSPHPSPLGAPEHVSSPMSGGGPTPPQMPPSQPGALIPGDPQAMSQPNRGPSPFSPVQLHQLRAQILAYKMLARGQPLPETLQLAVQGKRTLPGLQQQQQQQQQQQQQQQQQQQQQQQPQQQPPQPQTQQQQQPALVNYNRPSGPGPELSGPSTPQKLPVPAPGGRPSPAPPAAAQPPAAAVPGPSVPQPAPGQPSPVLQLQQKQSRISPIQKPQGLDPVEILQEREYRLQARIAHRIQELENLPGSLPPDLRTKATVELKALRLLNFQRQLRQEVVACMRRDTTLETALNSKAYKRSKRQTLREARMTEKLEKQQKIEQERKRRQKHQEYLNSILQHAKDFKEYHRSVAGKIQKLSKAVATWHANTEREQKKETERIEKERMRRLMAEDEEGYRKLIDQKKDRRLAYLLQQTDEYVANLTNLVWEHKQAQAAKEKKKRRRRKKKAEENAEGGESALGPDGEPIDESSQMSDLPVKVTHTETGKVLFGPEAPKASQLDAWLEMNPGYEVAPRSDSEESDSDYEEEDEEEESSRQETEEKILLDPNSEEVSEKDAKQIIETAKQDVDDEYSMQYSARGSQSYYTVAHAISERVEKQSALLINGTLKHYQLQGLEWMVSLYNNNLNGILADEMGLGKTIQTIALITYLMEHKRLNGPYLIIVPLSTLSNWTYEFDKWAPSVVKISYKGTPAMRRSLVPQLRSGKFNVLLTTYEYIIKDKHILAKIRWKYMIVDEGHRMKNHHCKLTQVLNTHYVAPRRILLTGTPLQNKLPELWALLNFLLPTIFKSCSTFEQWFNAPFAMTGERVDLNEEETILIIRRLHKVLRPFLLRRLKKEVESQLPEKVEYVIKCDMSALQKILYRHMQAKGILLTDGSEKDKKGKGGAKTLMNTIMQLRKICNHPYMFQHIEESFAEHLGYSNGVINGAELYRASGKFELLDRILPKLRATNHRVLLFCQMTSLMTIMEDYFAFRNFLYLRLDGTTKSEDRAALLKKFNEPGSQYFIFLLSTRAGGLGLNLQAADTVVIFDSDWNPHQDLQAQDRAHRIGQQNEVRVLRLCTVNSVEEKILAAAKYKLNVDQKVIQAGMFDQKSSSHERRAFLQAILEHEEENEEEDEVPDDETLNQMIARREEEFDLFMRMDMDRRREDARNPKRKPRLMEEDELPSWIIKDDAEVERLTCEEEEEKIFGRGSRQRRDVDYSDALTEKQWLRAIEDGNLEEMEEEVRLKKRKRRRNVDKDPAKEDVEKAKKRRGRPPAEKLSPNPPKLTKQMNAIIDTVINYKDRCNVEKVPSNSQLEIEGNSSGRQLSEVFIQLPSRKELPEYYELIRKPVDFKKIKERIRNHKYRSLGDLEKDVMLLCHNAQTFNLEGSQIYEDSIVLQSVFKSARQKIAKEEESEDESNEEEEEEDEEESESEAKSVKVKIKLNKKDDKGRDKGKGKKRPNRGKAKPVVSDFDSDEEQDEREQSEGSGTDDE
- protocol.details: SMARCA2 degradation assay (HiBiT-fusion HeLa cell line, 24 h, luminescence)
- Type: cell-based
- condition.context: @ 1 μM

molecule	SMARCA2 % Degradation @ 1 μM
Nc1nnc(-c2ccccc2O)cc1N1CC2CCN(c3ccnc(C#CCNC(=O)c4cc5ncccn5n4)n3)C2C1 (stereo not drawn) [Compound P-36]	+++ (+++=>70%)
CC(C)(C)OC(=O)NCC#Cc1nccc(N2CCCN(c3cc(-c4ccccc4O)nnc3N)CC2)n1 [Compound P-121]	+++ (+++=>70%)
CC(C#Cc1ncc(F)c(N2CCN(c3cc(-c4ccccc4O)nnc3N)CC[C@H]2C)n1)N(C)C (stereo partly drawn) [Compound P-208]	++ (++=30-70%)
C[C@@H]1CCN(c2cc(-c3ccccc3O)nnc2N)CCN1c1ccnc(C#CCNC(=O)OC2CC/C=C\CCC2)n1 (stereo partly drawn) [Compound P-268]	+++ (+++=>70%)
Nc1nnc(-c2ccccc2O)cc1N1CCCN(c2ccnc(C#CCN3CCS(=O)(=O)CC3)n2)CC1 [Compound P-137]	++ (++=30-70%)
Nc1nnc(-c2ccccc2O)cc1N1CCN(c2ccnc(C#CCNC(=O)c3cnn4cccc(F)c34)n2)CC1 [Compound P-117]	++ (++=30-70%)
C[C@@H]1CCN(c2cc(-c3ccccc3O)nnc2N)CCN1c1ccnc(C#CCN(C)CC(F)F)n1 [Compound P-155]	++ (++=30-70%)
Nc1nnc(-c2ccccc2O)cc1-c1cnn(C2CN(c3ccnc(C#CCn4ccnc4)n3)C2)c1 [Compound P-212]	++ (++=30-70%)
CO[C@@H]1CCN(CC#Cc2nccc(N3CCN(c4cc(-c5ccccc5O)nnc4N)CC[C@H]3C)n2)C1 [Compound P-242]	++ (++=30-70%)
N#CCNCC#Cc1nccc(N2CCCN(c3cc(-c4ccccc4O)nnc3N)CC2)n1 [Compound P-255]	++ (++=30-70%)
Nc1nnc(-c2ccccc2O)cc1N1CCCN(c2ccnc(C#CC3CCOC3)n2)CC1 (stereo not drawn) [Compound P-340]	++ (++=30-70%)
C[C@@H]1CCN(c2cc(-c3ccccc3O)nnc2N)CCN1c1nc(C#CCN2C(=O)CC[C@@H]2C)ncc1F [Compound P-176]	++ (++=30-70%)
Nc1nnc(-c2ccccc2O)cc1N1CCCN(c2ccnc(C#CCN3CCOC3=O)n2)CC1 [Compound P-374]	+++ (+++=>70%)
Cc1cc(C)n(CC#Cc2nccc(N3CCN(c4cc(-c5ccccc5O)nnc4N)CC[C@H]3C)n2)n1 [Compound P-177]	++ (++=30-70%)
